Attribution: ChEMBL document CHEMBL1909046

system: Cholecystokinin receptor type A (Homo sapiens); note: in other assays of this panel Not Active means under 50% inhibition at 10 µM
Sequence (P32238 whole entry): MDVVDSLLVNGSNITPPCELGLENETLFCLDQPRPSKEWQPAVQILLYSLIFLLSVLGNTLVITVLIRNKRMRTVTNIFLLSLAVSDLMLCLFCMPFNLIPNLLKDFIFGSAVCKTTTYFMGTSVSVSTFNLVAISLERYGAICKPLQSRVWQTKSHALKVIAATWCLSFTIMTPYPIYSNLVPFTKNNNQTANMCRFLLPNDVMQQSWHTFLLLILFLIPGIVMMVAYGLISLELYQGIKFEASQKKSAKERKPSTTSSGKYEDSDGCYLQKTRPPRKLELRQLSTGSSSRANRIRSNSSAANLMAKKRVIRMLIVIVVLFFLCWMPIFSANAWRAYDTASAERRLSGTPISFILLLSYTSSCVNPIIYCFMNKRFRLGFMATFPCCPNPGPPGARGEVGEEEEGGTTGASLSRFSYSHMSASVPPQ
Format: cell membranes, Membrane
measurementParameters: 1321-n1
metricName: IC50

Illustrative cases are given below, each with its answer.
compound: C[C@]12CC[C@H]3[C@@H](CCC4=CC(=O)CC[C@@H]43)[C@@H]1CC[C@@H]2O
system: Cholecystokinin receptor type A (Homo sapiens); note: in other assays of this panel Not Active means under 50% inhibition at 10 µM
metricName: IC50
observedValue: Not Active
//
compound: CCn1cc(C(=O)O)c(=O)c2cc(F)c(N3CCNC(C)C3)c(F)c21 (stereo not drawn)
system: Cholecystokinin receptor type A (Homo sapiens); note: in other assays of this panel Not Active means under 50% inhibition at 10 µM
metricName: IC50
observedValue: Not Active
//
compound: C#C[C@]1(O)CC[C@H]2[C@@H]3CCC4=CC(=O)CC[C@]4(C)[C@H]3CC[C@@]21C
system: Cholecystokinin receptor type A (Homo sapiens); note: in other assays of this panel Not Active means under 50% inhibition at 10 µM
metricName: IC50
observedValue: Not Active
//
compound: CCOc1nc2cccc(C(=O)O)c2n1Cc1ccc(-c2ccccc2-c2nnn[nH]2)cc1
system: Cholecystokinin receptor type A (Homo sapiens); note: in other assays of this panel Not Active means under 50% inhibition at 10 µM
metricName: IC50
observedValue: Not Active
//
compound: Clc1ccc(COC(Cn2ccnc2)c2ccc(Cl)cc2Cl)c(Cl)c1 (stereo not drawn)
system: Cholecystokinin receptor type A (Homo sapiens); note: in other assays of this panel Not Active means under 50% inhibition at 10 µM
metricName: IC50
observedValue: Not Active

Form: Entry = Nc1ccc(S(=O)(=O)NC(=O)c2ccccc2)cc1 [SULFABENZAMIDE] | System = Cholecystokinin receptor type A (Homo sapiens) | IC50 = ____; note: in other assays of this panel Not Active means under 50% inhibition at 10 µM
Not Active

Form: Entry = CN(C)C(=N)NC(=N)N | System = Cholecystokinin receptor type A (Homo sapiens) | IC50 = ____; note: in other assays of this panel Not Active means under 50% inhibition at 10 µM
Not Active

Form: Entry = COc1cccc2c1C(=O)c1c(O)c3c(c(O)c1C2=O)C[C@@](O)(C(C)=O)C[C@@H]3O[C@H]1C[C@H](N)[C@H](O)[C@H](C)O1 | System = Cholecystokinin receptor type A (Homo sapiens) | IC50 = ____; note: in other assays of this panel Not Active means under 50% inhibition at 10 µM
Not Active

====

system: Epidermal growth factor receptor (Homo sapiens, UniProt P00533)
assaySummary: DRUGMATRIX: Protein Tyrosine Kinase, EGF Receptor enzyme inhibition (substrate: Poly(Glu:Tyr))
Type: cell-based, Insect cells
measurementParameters: insect cells; Not Active = under 50% inhibition at 10 µM; read-out: IC50
Recorded IC50, one value per entry.
Lab book: enter the figure in nM, no units written.

polymerSequence: TRANSPLATIN
metricName: IC50
observedValue: 1060

In the following, a different sequence is considered.
Given COLISTIN , state its recorded IC50.
1500
